- Test system: UACC-62 melanoma
- assay details: NCI tumour cell line growth inhibition, 48 h
property label: TGI (µM)

compound | lt gt eq | measurement
O=C(O)CC(NC(=O)CP(=O)(O)O)C(=O)O (stereo not drawn) | = | 6640
COC(=O)[C@H](Cc1c[nH]c2ccccc12)NC(=O)c1ccc(CNC(=O)/C(C)=C/c2ccccc2)cc1 | = | 41.7
O=C(Oc1ccccc1)N1c2ccccc2[C@@]23O[C@]24CCC[C@H]3C#C/C=C\C#C[C@H]14 | = | 23.6
CC(C)CC(NC(=O)C(CI)Cc1ccccc1)C(=O)Nc1ccccc1 (stereo not drawn) | > | 100
COc1ccc(/C(Cl)=C(\C=O)c2ccc(OC)c(OC)c2)cc1 | > | 100
COc1cc(N=Nc2cccc(S(=O)(=O)O)c2)ccc1N=Nc1ccc(/C=C/c2ccc(-n3on3-c3ccc(/C=C/c4ccc(N=Nc5ccc(N=Nc6cccc(S(=O)(=O)O)c6)cc5OC)cc4S(=O)(=O)O)c(S(=O)(=O)O)c3)cc2S(=O)(=O)O)c(S(=O)(=O)O)c1 | > | 100
COc1ccc(O)c(C(=O)c2ccc(C(=O)N[C@H]3CCCNC[C@@H]3NC(=O)c3ccncc3)cc2)c1F | > | 25
O=c1oc2ccccc2cc1-c1cn2ccccc2n1 | = | 15.8

====

// reported TGI per item
- System: MCF7 breast
- assay details: NCI tumour cell line growth inhibition, 48 h

molecule | target under test | lt gt eq | TGI [µM]
Cc1cc(C)c(NC(=O)c2sc3nc4c(cc3c2N)CN(Cc2ccccc2)CC4)c(C)c1 | MCF7 breast | = | 32.2
COc1ccc(-n2c(C)cc(-c3ccccc3)c2C)cc1 | MCF7 breast | > | 100
Cc1cc(C)c(/C=C2\C(=O)Nc3ccc(NC(=O)CCCCCCC(=O)NO)cc32)[nH]1 | MCF7 breast | > | 100
c1ccc(NN=C(c2ccccn2)c2ccccn2)nc1 | MCF7 breast | > | 100
CCOC(=O)/C=C/[C@H](O[Si](CC)(CC)CC)C(C)(C)C | MCF7 breast | = | 66.9
COc1cc(O)c(C(=O)/C=C/c2ccc(O)cc2)cc1Oc1ccc(/C=C/C(=O)c2ccc(O)cc2O)cc1 | MCF7 breast | = | 22.9
[N-]=[N+]=NC1C(O)C(CO)OC1n1ccc(=O)[nH]c1=O (stereo not given) | MCF7 breast | > | 875
O=C(/N=C/c1c(O)c2ccccc2oc1=O)Oc1ccccc1 | MCF7 breast | > | 100
O=C(c1ccccc1)c1c(-c2ccccc2)n(-c2ccccc2)[nH]c(=O)c1=O | MCF7 breast | > | 100
O=C1NC(=O)/C(=C\c2ccccc2)C2=C1CCCC2 | MCF7 breast | = | 25
Cc1ccccc1N/C(=C(/C(Cl)=C(Cl)Cl)[N+](=O)[O-])n1nnc2ccccc21 | MCF7 breast | = | 86.5
Cc1nc(-[n+]2nc(-c3ccncc3)nn2-c2ccccc2)sc1C | MCF7 breast | > | 100
NC(=O)OCCn1cc(-c2nc(-c3c[nH]c4ncccc34)cs2)c2ccccc21 | MCF7 breast | = | 5.31
CCn1sc2ccccc2c1=O | MCF7 breast | = | 26.8
CCOC(=O)c1c(NC(=O)c2cccc(C(F)(F)F)c2)sc2c(CN(C)C)c(O)ccc12 | MCF7 breast | = | 12.1
COc1cc(OC)c(/C=C/c2c3ccccc3cc[n+]2C)c(OC)c1 | MCF7 breast | = | 18.2
O=C1NC(=O)C(c2c[nH]c3ccccc23)=C1c1cn(C(c2ccccc2)(c2ccccc2)c2ccccc2)cn1 | MCF7 breast | = | 17.7
Cn1cc(C2=C(c3cccc(Br)c3)C(=O)NC2=O)c2ccccc21 | MCF7 breast | > | 25
c1ccc([P+](CC[P+](c2ccccc2)(c2ccccc2)c2ccccc2)(c2ccccc2)c2ccccc2)cc1 | MCF7 breast | > | 100
CC(C)N(C(=O)C1(O)c2ccccc2C=Cc2ccccc21)C(C)C | MCF7 breast | = | 31
N=C(N)c1ccc2nc(-c3cc(CC(=O)N[C@@H](CC(=O)O)C(=O)O)cc(-c4cc(S(N)(=O)=O)ccc4O)c3O)[nH]c2c1 | MCF7 breast | > | 100
N#CC1=C(N)Oc2cc(O)ccc2C1c1cccc2ccccc12 (stereo not given) | MCF7 breast | = | 24.5
S=C1SSC2N=CC=CC12 (stereo not given) | MCF7 breast | > | 100
COC(=O)C1=C(C(=O)Nc2cccnc2Cl)N(c2ccc(OC)cc2[N+](=O)[O-])C(c2ccc(C)cc2)=CC1c1ccc(OC)cc1OC (stereo not given) | MCF7 breast | = | 22.4
Nc1nc(Cl)c(N)c(NCC2(CO)CCCC2)n1 | MCF7 breast | > | 100
CCCCCCCCCCCCC/C=C/[C@@H](O)[C@H](COC1OC(CO)C(OC2OC(CO)C(O)C(OC3(C(=O)O)CC(O)C(NC(C)=O)C(C(O)C(O)CO)O3)C2O)C(O)C1O)N=[N+]=[N-] (stereo not given in full) | MCF7 breast | > | 100
COc1ccc(-c2nc(-c3cc4c(ccc5ccccc54)oc3=O)cs2)cc1 | MCF7 breast | > | 100
O=c1oc2ccccc2cc1-c1cn2ccccc2n1 | MCF7 breast | = | 30
CN(C)CCNC(=O)c1ccc2nc3c(nc2c1)C(=O)c1ccccc1-3 | MCF7 breast | > | 100
Cc1cc(C)c(C[C@H]2COC(=O)[C@]2(O)Cc2c(C)cc(C)cc2C)c(C)c1 | MCF7 breast | = | 34
CC(=O)O[C@H]1CCC2[C@@H]3CCC4Nc5oncc5C[C@]4(C)C3CC[C@@]21C (stereo not given in full) | MCF7 breast | > | 10
CC1=CCC(C)=Nc2nc3ccccc3n21 | MCF7 breast | > | 100
Cc1nn(C(=O)Cc2ccccc2)c2c1C(c1ccc(Cl)cc1)SC(N)=N2 (stereo not given) | MCF7 breast | > | 100
CN1C(=O)/C(=C/c2c(Cl)n(C)c3ccccc23)c2ccccc21 | MCF7 breast | > | 100
N#CC1=C(Nc2ccccc2)SC=C(c2ccccc2)NC1=NCc1ccccc1 | MCF7 breast | > | 100
CC[C@H]1CN2CCc3cc(OC)c(OC)cc3[C@@H]2C[C@@H]1C[C@H]1NCCc2c1[nH]c1ccc(O)cc21 | MCF7 breast | = | 0.137
O=C(O)C1C2C=CC(C2)C1c1ccccc1 (stereo not given) | MCF7 breast | > | 100
c1ccc2nc3c(nc2c1)sc1ccccc13 | MCF7 breast | > | 100
COc1cc(C(=O)N2CCN(c3ncccn3)CC2)c(N)cc1OCc1ccccc1 | MCF7 breast | > | 100
O=C(Nc1ccc(F)cc1)c1cc(S(=O)(=O)Nc2nc3ccccc3o2)c(SCc2ccccc2)cc1Cl | MCF7 breast | = | 63.7

====

- Test system: K-562 leukemia
- assay details: NCI tumour cell line growth inhibition, 48 h

molecule | lt gt eq | TGI, µM
O=C1c2cccc3cccc(c23)C(=O)N1CCCNCCCNCCCCNCCCNCCCN1C(=O)c2cccc3cccc(c23)C1=O | = | 16.5
c1ccc([P+](CC[P+](c2ccccc2)(c2ccccc2)c2ccccc2)(c2ccccc2)c2ccccc2)cc1 | > | 100
O=CN1CCN(CC(O)CN2CCCCC2)CC1 (stereo not given) | > | 100
CC(=O)O[C@H]1CCC2[C@@H]3CCC4Nc5oncc5C[C@]4(C)C3CC[C@@]21C (stereo not given in full) | > | 10
O=C1OCC2C1C1c3ccccc3C(O)c3ccccc3C21 (stereo not given) | > | 100
COc1ccc(-c2csc(Cc3nc4ccccc4c(=O)n3-c3ccc(Cl)cc3)n2)cc1 | = | 41.8
C1=C\COCc2cc(ccc2OCCN2CCCC2)Nc2nccc(n2)-c2cccc(c2)COC/1 | = | 3.65
Cc1cc(C)c(C[C@H]2COC(=O)[C@]2(O)Cc2c(C)cc(C)cc2C)c(C)c1 | > | 100
COc1cc(C(=O)N2CCN(c3ncccn3)CC2)c(N)cc1OCc1ccccc1 | > | 100
CCOC(=O)/C=C(/C)Sc1cc(O)c2ccccc2c1O | = | 6.68

====

- Tested on: SNB-19 CNS
- assay details: NCI tumour cell line growth inhibition, 48 h
// reported GI50 per item
property label: GI50

compound | target under test | measurement
NC(=O)OCCn1cc(-c2nc(-c3c[nH]c4ncccc34)cs2)c2ccccc21 | SNB-19 CNS | 2.57 µM
CCOC(=O)/C=C(/C)Sc1cc(O)c2ccccc2c1O | SNB-19 CNS | 4.05 µM
C1=C\COCc2cc(ccc2OCCN2CCCC2)Nc2nccc(n2)-c2cccc(c2)COC/1 | SNB-19 CNS | 2.68 µM
C=C1C(=O)O[C@H]2[C@H]1CC/C(COC(=O)/C=C\C(=O)NCc1ccc(Cn3c(=O)sn(CCCC)c3=O)cc1)=C\CC[C@@]1(C)O[C@@H]21 | SNB-19 CNS | 1.53 µM
C#COc1cccc(Nc2c(C#N)cnc3ncc(NC(=O)CCl)cc23)c1 | SNB-19 CNS | 32.1 µM
Cc1cc(C)c(NC(=O)c2sc3nc4c(cc3c2N)CN(Cc2ccccc2)CC4)c(C)c1 | SNB-19 CNS | 7.21 µM
O=C1NC(=NCCc2cccc(Cl)c2)S/C1=C\c1ccc2ncccc2c1 | SNB-19 CNS | > 25 µM
COc1ccc(O)c(C(=O)c2ccc(C(=O)N[C@H]3CCCNC[C@@H]3NC(=O)c3ccncc3)cc2)c1F | SNB-19 CNS | 10.4 µM
COCC1(CO)C(=O)C2CCN1CC2 (stereo unspecified) | SNB-19 CNS | > 69 µM
CC(=O)Oc1ccccc1C(=O)Nc1ncc([N+](=O)[O-])s1 | SNB-19 CNS | 2.05 µM
COc1ccc(CCNC(=O)c2ccc(NC3=C(Cl)C(=O)N(Cc4ccccc4)C3=O)cc2)cc1OC | SNB-19 CNS | 27.5 µM
O=C1c2ccccc2-c2c1c1ccccc1c(=O)n2CCCCl | SNB-19 CNS | 34.2 µM
CC(=O)[O][Ga]([Br])[O]C(C)=O | SNB-19 CNS | > 100 µM
CN(CCO)c1ccc(N2Cc3ccccc3OC3=C2C(=O)c2c(O)ccc(O)c2C3=O)cn1 | SNB-19 CNS | 0.465 µM
COc1c[c]([Hg][O]C(C)=O)c(OC)c(NC(=O)CC(C)=O)[c]1[Hg][O]C(C)=O | SNB-19 CNS | 5.56 µM
COc1cc(OC)c(/C=C/c2c3ccccc3cc[n+]2C)c(OC)c1 | SNB-19 CNS | 1.88 µM
